Origin of the recorded values: the array DNA melting data of Ke et al. (doi:10.1101/2024.01.08.574731)

EXPERIMENT NOTES: melting temperature; fluorescence melt of hairpins on a sequencing array, two-state fit, raised by 9.35 °C to match UV melts
CONDITION PARAMETERS: sodium 0.088 M
Examples of sequences with documented Tm follow.
ATTRIBUTE MEASURED: Tm (°C)

>>> result_number("GACACCGAAAGGTTGGTC ((((((....)))..)))")
40.8
>>> result_number("GATCAATGGCTTGATC ((((((....))))))")
42.2
>>> result_number("GATCCTTGTAAGGATC ((((((....))))))")
55.6
>>> result_number("GTCGTCGAAAGACCAGAC ((((((....)))..)))")
34.9
>>> result_number("GGAGTGACGAAAGTCTCC (((..(((....))))))")
38.8
>>> result_number("GGGATGGGAAACCGTTCC ((.(.((....)).).))")
39.1
>>> result_number("GTTAAACGAAAGTTAAAC (((.(((....))).)))")
34.2
>>> result_number("GTATATCGAAAGATGTAC (((.(((....))).)))")
44.5
>>> result_number("GGTATGACGAAAGTCACC (((..(((....))))))")
33.6
>>> result_number("GGTGTGGGAAACCACGCC ((.((((....)))).))")
60.5
>>> result_number("GCGACCGTTCGC ((((....))))")
49.1
>>> result_number("GCGAGCGAAAGCTCCCGC ((((((....)))..)))")
42.4
>>> result_number("GATCGCGAAAGCGTAATC ((((((....)))..)))")
29.2
>>> result_number("GTTTTGGGAAACCGAAAC ((((.((....)).))))")
45.7
>>> result_number("GTTGAGCGAAAGCTTAAC (((.(((....))).)))")
52.4
>>> result_number("GGACTGTCGAAAGACTCC (((..(((....))))))")
21.5
